# TARGET DESC: NR2F6 (Homo sapiens, UniProt P10588)
# Construct: expressed in transfected cells; also transient transfection
# Sequence (P10588 1-404): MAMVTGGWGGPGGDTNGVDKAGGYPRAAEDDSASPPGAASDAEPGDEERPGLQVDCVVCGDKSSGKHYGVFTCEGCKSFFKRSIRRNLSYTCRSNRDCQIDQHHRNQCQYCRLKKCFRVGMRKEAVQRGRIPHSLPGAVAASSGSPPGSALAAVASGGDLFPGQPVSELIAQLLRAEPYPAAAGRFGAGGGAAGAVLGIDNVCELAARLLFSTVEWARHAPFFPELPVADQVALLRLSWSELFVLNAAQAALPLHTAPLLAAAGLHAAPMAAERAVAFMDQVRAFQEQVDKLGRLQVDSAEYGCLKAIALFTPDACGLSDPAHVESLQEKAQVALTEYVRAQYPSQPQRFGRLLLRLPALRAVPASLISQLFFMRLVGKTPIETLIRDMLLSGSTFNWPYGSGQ
# TEST SUMMARY: NR2F6 agonist screening, Firefly signal cmpd/DMSO
# Format: cell-based
# RECORDED CONDITIONS: 40 uM; clone F4
Response field class: enum, chosen by comparing Firefly F4, cmpd/DMSO (mean) against lo = under 0.8, mid = from 0.8 up to 1, hi = 1 and over

compound="CCCCCCNc1nc(OC)nc(N2CCn3c(cccc3=O)C2)n1 [Compound 41]" cat=mid
compound="CNC(=O)c1cnc2c(C)cc(C)cc2c1NCCCN(C)C [Compound Z30]" cat=hi
compound="O=C(O)c1ccc(-n2ncc(Cl)c(Cl)c2=O)cc1 [Compound 44]" cat=lo
compound="COc1ccc(-c2cc3n(n2)C(N)=C(C#N)C(c2c[nH]c4ccccc24)(C(F)(F)F)N3)cc1OC (centres unmarked) [Compound Z44]" cat=lo
compound="COc1ccc2nc(C(F)(F)F)c(C#N)c(N3CCN(C)CC3)c2c1 [Compound Z41]" cat=hi
compound="O=c1cccc2n1CC1CC2CN(c2nc(N3CCOCC3)nc(N3CCOCC3)n2)C1 (centres unmarked) [Compound 31]" cat=mid
compound="O=c1cccc2n1CC1CC2CN(c2nc(NCCC3=CCCCC3)nc(N3CCOCC3)n2)C1 (centres unmarked) [Compound 39]" cat=mid
compound="COC(=O)CNc1c(C#N)c(C(F)(F)F)nc2ccc(OC)cc12 [Compound Z46]" cat=lo
compound="N#Cc1c(C(F)(F)F)nc2ccc(Oc3ccccc3)cc2c1NCCc1ccc(Cl)cc1 [Compound Z52]" cat=lo
compound="COC(=O)c1[nH]c2c(c(C(F)(F)F)nc3ccc(OC)cc32)c1N [Compound Z47]" cat=hi
compound="CCOC(=O)c1cnc2ccc(C)cc2c1NCCCN(C)C [Compound Z33]" cat=hi
compound="O=c1cccc2n1CC1CC2CN(c2nc(N3CCCC3)nc(N3CCCC3)n2)C1 (centres unmarked) [Compound 26]" cat=hi
compound="O=c1c(Cl)c(Cl)cnn1-c1ccccc1 [Compound 45]" cat=lo
compound="Cc1cc(C)nc(Nc2nc(-c3ccccc3)c(CC(=O)O)s2)n1 [Compound 29]" cat=hi
compound="Cc1cc(C)c2ncc(C(=O)OC(C)C)c(NCCCN(C)C)c2c1 [Compound Z29]" cat=hi

# credit: patent US11377442B2
